Target: MAPK14 (human) (UniProt Q16539)
Sequence (Q16539 whole entry, looked up): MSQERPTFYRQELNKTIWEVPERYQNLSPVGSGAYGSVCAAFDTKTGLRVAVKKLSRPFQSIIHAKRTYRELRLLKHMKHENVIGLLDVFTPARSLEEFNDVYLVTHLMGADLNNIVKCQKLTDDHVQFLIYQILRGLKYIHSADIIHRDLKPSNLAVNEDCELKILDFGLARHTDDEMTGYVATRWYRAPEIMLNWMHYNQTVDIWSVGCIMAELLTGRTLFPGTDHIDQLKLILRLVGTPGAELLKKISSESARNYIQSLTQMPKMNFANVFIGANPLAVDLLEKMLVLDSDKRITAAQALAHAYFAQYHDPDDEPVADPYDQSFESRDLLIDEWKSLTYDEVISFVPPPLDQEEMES
Assay: KINOMEscan competition binding
Conditions: compound 10.0 µM

compound | targetOfAssay | measurementUnits | kinase still bound, per cent of control
CNC(=O)Nc1ccc(-c2nc(N3CC4CCC(C3)O4)c3cnn(C4CCC5(CC4)OCCO5)c3n2)cc1 | MAPK14 (human) (UniProt Q16539) | % | 100
O=c1[nH]c2ccccc2n1C1CCN(Cc2ccc(-c3nc4cc5[nH]cnc5cc4nc3-c3ccccc3)cc2)CC1 | MAPK14 (human) (UniProt Q16539) | % | 88
N#C/C(=C1/Nc2ccccc2S1)c1ccnc(NCCc2cccnc2)n1 | MAPK14 (human) (UniProt Q16539) | % | 57
CC1=C(C(=O)Nc2cc3cn[nH]c3cc2F)C(c2ccc(C(F)(F)F)cc2)CC(=O)N1 (stereo unspecified) | MAPK14 (human) (UniProt Q16539) | % | 100
N#Cc1cc(-c2ccnc(Nc3ccc(-n4cnc(-c5cccnc5)n4)cc3)n2)cc(N2CCOCC2)c1 | MAPK14 (human) (UniProt Q16539) | % | 100
COc1cc(N2CCC(C(N)=O)CC2)ccc1Nc1nc(N)c(Cl)c(Nc2ccccc2S(=O)(=O)C(C)C)n1 | MAPK14 (human) (UniProt Q16539) | % | 100
COc1ccc(N(C(=O)Oc2cc(C(=O)Nc3cccc(C(F)(F)F)c3)ccc2C)c2ccnc(Nc3ccc(N4CCN(C)CC4)cc3)n2)c(OC)c1 | MAPK14 (human) (UniProt Q16539) | % | 14
CCN1CCN(Cc2ccc(NC(=O)c3ccc(C)c(/C=C/c4cnc5[nH]ccc5c4OC)c3)cc2C(F)(F)F)CC1 | MAPK14 (human) (UniProt Q16539) | % | 0
C=CC(=O)Nc1ccc(C(=O)c2sc(Nc3ccc(N4CCN(C)CC4)cc3OC)nc2N)cc1 | MAPK14 (human) (UniProt Q16539) | % | 2.7
CCN(CCO)CCCOc1ccc2c(Nc3cc(CC(=O)Nc4cccc(F)c4)[nH]n3)ncnc2c1 | MAPK14 (human) (UniProt Q16539) | % | 100
COc1cc(C)c(Sc2cnc(NC(=O)c3ccc(CNC(C)C(C)C)cc3)s2)cc1C(=O)N1CCN(C(C)=O)CC1 (stereo unspecified) | MAPK14 (human) (UniProt Q16539) | % | 100

###

Target: MAP3K4 (human)
Experiment: KINOMEscan competition binding
Conditions: compound 10.0 µM

molecule | kinase still bound, per cent of control
COc1cc2ncnc(Nc3cccc(Cl)c3)c2cc1OC | 83%
CNC(=O)Nc1ccc(-c2nc(N3CC4CCC(C3)O4)c3cnn(C4CCC5(CC4)OCCO5)c3n2)cc1 | 86%
CCOc1cc(N2CCC(O)CC2)ccc1Nc1ncc2c(n1)N(C)c1ccccc1C(=O)N2C | 100%
COc1cc(C)c(Sc2cnc(NC(=O)c3ccc(CNC(C)C(C)C)cc3)s2)cc1C(=O)N1CCN(C(C)=O)CC1 (stereo not drawn) | 12%
C=CC(=O)Nc1ccc(C(=O)c2sc(Nc3ccc(N4CCN(C)CC4)cc3OC)nc2N)cc1 | 100%
N#Cc1cc(-c2ccnc(Nc3ccc(-n4cnc(-c5cccnc5)n4)cc3)n2)cc(N2CCOCC2)c1 | 50%
CCN1CCN(Cc2ccc(NC(=O)c3ccc(C)c(/C=C/c4cnc5[nH]ccc5c4OC)c3)cc2C(F)(F)F)CC1 | 66%
COc1cc(N2CCC(C(N)=O)CC2)ccc1Nc1nc(N)c(Cl)c(Nc2ccccc2S(=O)(=O)C(C)C)n1 | 100%
